Would you mind telling me the reported pIC50 of each entry?
target: Gonadotropin-releasing hormone receptor (Homo sapiens); experiment: In vitro inhibition of human gonadotropin-releasing hormone expressed in HEK293 cells; type: cell-based
Sequence (P30968 whole entry): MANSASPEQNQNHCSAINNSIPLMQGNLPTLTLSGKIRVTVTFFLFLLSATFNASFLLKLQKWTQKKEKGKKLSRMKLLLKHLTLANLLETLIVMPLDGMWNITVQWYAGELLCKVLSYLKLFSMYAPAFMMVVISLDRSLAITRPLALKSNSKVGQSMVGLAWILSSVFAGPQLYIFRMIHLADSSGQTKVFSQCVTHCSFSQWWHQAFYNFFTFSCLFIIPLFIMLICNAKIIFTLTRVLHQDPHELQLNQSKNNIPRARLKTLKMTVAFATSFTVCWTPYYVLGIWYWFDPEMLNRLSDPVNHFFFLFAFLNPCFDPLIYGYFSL
Remember, pIC50 is on a log scale: it is -log10 of the molar concentration.

Find the recorded pIC50 belonging to CC(=O)N[C@H](Cc1ccc2ccccc2c1)C(=O)N[C@H](Cc1ccc(Cl)cc1)C(=O)N[C@H](Cc1cccnc1)C(=O)N[C@@H](CO)C(=O)N[C@@H](Cc1ccc(NC(=O)C(N)CN)cc1)C(=O)N[C@H](Cc1ccc(NC(N)=O)cc1)C(=O)N[C@@H](CC(C)C)C(=O)N[C@@H](CCCCNC(C)C)C(=O)N1CCC[C@H]1C(=O)N[C@H](C)C(=O)O (stereo partly drawn) and report it.
8.20

How about `CC(=O)N[C@H](Cc1ccc2ccccc2c1)C(=O)N[C@H](Cc1ccc(Cl)cc1)C(=O)N[C@H](Cc1cccnc1)C(=O)N[C@@H](CO)C(=O)N[C@@H](Cc1ccc(NC(=O)NC(=O)[C@@H](N)CC(N)=O)cc1)C(=O)N[C@H](Cc1ccc(NC(N)=O)cc1)C(=O)N[C@@H](CC(C)C)C(=O)N[C@@H](CCCCNC(C)C)C(=O)N1CCC[C@H]1C(=O)N[C@H](C)C(=O)O` ?
8.60

Now this one: CC(=O)N[C@H](Cc1ccc2ccccc2c1)C(=O)N[C@H](Cc1ccc(Cl)cc1)C(=O)N[C@H](Cc1cccnc1)C(=O)N[C@@H](CO)C(=O)N[C@@H](Cc1ccc(NC(=O)C2CCNC(=O)N2)cc1)C(=O)N[C@H](Cc1ccc(NC(N)=O)cc1)C(=O)N[C@@H](CC(C)C)C(=O)N[C@@H](CCCCNC(C)C)C(=O)N1CCC[C@H]1C(=O)N[C@H](C)C(N)=O (stereo partly drawn)
8.70

The origin of these recorded values is ChEMBL document CHEMBL1139600.
